The entries below pair compounds with pKi values for UniProt P62942, as found in several publications.
Remember, pKi is on a log scale: it is -log10 of the molar concentration.

Exercise: Consider the compound COC(CC(C)C)[C@@H]1CC[C@@H](C)[C@](O)(C(=O)C(=O)N2CCCC[C@H]2C(=O)OCc2ccccc2)C1 (stereo partly drawn) and give its measured pKi.
Key: 8.55

Exercise: Consider the compound O=C(C(=O)N1CCCCC1C(=O)OC(CCCc1ccccc1)CCCc1ccccn1)c1ccccc1 (stereo not drawn) and give its measured pKi.
Key: 7.30

Exercise: Consider the compound COc1cc([C@@H](C(=O)N2CCCC[C@H]2C(=O)N[C@@H](Cc2cnc[nH]2)C(N)=O)C2CCCCC2)cc(OC)c1OC and give its measured pKi.
Key: 4.00

Exercise: Consider the compound O=C(NCCCc1ccccc1)C1CCCN1S(=O)(=O)CCc1ccccc1 (stereo not drawn) and give its measured pKi.
Key: 4.89

Exercise: Consider the compound COc1cc([C@@H](C(=O)N2CCCC[C@H]2C(=O)N[C@H](C)C(N)=O)C2CCCCC2)cc(OC)c1OC and give its measured pKi.
Key: 4.15

Exercise: Consider the compound O=C(OCCCc1ccc(Cl)cc1)[C@@H]1CCCN1C(=O)NC12C[C@H]3C[C@@H](C1)C[C@@H](C2)C3 and give its measured pKi.
Key: 5.64

Exercise: Consider the compound COc1cc2c(c(OC)c1)C1C3CCCC(C(=O)N1CC2)N3C(=O)C(=O)c1ccc(Cl)cc1Cl (stereo not drawn) and give its measured pKi.
Key: 6.23

Exercise: Consider the compound O=C(C(=O)N1CCCCC1C(=O)OCCCc1ccccc1)C1CCCCC1 (stereo not drawn) and give its measured pKi.
Key: 6.68

---

The entries below pair molecules with pKi values for Peptidyl-prolyl cis-trans isomerase FKBP1A (Homo sapiens, UniProt P62942), as found in several publications.
Remember, pKi is on a log scale: it is -log10 of the molar concentration.

Exercise: # get_value(readout= pKi, system= Peptidyl-prolyl cis-trans isomerase FKBP1A (Homo sapiens, UniProt P62942)) for COc1cc([C@@H](C(=O)N2CCCC[C@H]2C(=O)N[C@@H](C(N)=O)C(C)C)C2CCCCC2)cc(OC)c1OC
Key: 4.40

Exercise: # get_value(readout= pKi, system= Peptidyl-prolyl cis-trans isomerase FKBP1A (Homo sapiens, UniProt P62942)) for O=C(NCCCc1ccccc1)C1CCCN1S(=O)(=O)c1ccccc1 (stereo unspecified)
Key: 5.02

Exercise: # get_value(readout= pKi, system= Peptidyl-prolyl cis-trans isomerase FKBP1A (Homo sapiens, UniProt P62942)) for CC(C)[C@@H]1CC[C@@H](C)[C@](O)(C(=O)C(=O)N2CCCC[C@H]2C(=O)OCc2ccccc2)C1
Key: 6.68

Exercise: # get_value(readout= pKi, system= Peptidyl-prolyl cis-trans isomerase FKBP1A (Homo sapiens, UniProt P62942)) for COc1cc2c(c(OC)c1)C1C3CCCC(C(=O)N1CC2)N3S(=O)(=O)c1cccc(C)c1 (stereo unspecified)
Key: 6.98

Exercise: # get_value(readout= pKi, system= Peptidyl-prolyl cis-trans isomerase FKBP1A (Homo sapiens, UniProt P62942)) for Cc1ccc(S(=O)(=O)N2CCCC2C(=O)NCCc2ccccc2)cc1 (stereo unspecified)
Key: 4.48

Exercise: # get_value(readout= pKi, system= Peptidyl-prolyl cis-trans isomerase FKBP1A (Homo sapiens, UniProt P62942)) for COc1cc([C@@H](C(=O)N2CCCC[C@H]2C(=O)NC(C)(C)C(N)=O)C2CCCCC2)cc(OC)c1OC
Key: 4.60

Exercise: # get_value(readout= pKi, system= Peptidyl-prolyl cis-trans isomerase FKBP1A (Homo sapiens, UniProt P62942)) for COc1cc(OC)cc(C(=O)C(=O)N2C3CCCC2C2c4c(cc(OC)cc4OC)CCN2C3=O)c1 (stereo unspecified)
Key: 7.47

Exercise: # get_value(readout= pKi, system= Peptidyl-prolyl cis-trans isomerase FKBP1A (Homo sapiens, UniProt P62942)) for C=CCC(CC=C)C(=O)C[C@H](O)[C@@H](C)[C@H](OC(=O)[C@@H]1CCCCN1C(=O)C(=O)[C@]1(O)O[C@H]([C@H](/C=C\C)OC)CC[C@H]1C)[C@H](C)C[C@@H]1CC[C@@H](O)[C@H](OC)C1
Key: 6.68

Exercise: # get_value(readout= pKi, system= Peptidyl-prolyl cis-trans isomerase FKBP1A (Homo sapiens, UniProt P62942)) for COc1cc2c(c(OC)c1)[C@]1(C)C3CCC[C@@H](C(=O)N1CC2)N3S(=O)(=O)c1cc(Cl)cc(Cl)c1
Key: 6.06

Exercise: # get_value(readout= pKi, system= Peptidyl-prolyl cis-trans isomerase FKBP1A (Homo sapiens, UniProt P62942)) for COc1cc2c(c(OC)c1)C1C3CCCC(C(=O)N1CC2)N3C(=O)C(F)(F)c1cc(OC)c(OC)c(OC)c1 (stereo unspecified)
Key: 7.04

Exercise: # get_value(readout= pKi, system= Peptidyl-prolyl cis-trans isomerase FKBP1A (Homo sapiens, UniProt P62942)) for COc1cc([C@@H](C(=O)N2CCCC[C@H]2C(=O)NC2(C(N)=O)CCOCC2)C2CCCCC2)cc(OC)c1OC
Key: 5.52

Exercise: # get_value(readout= pKi, system= Peptidyl-prolyl cis-trans isomerase FKBP1A (Homo sapiens, UniProt P62942)) for COc1ccc2c(c1)CCN1C(=O)C3CCCC(C21)N3S(=O)(=O)Nc1ccc(F)nc1 (stereo unspecified)
Key: 6.74

Exercise: # get_value(readout= pKi, system= Peptidyl-prolyl cis-trans isomerase FKBP1A (Homo sapiens, UniProt P62942)) for O=C(OCCc1ccccc1)[C@@H]1CCCN1C(=S)NC12C[C@H]3C[C@@H](C1)C[C@@H](C2)C3
Key: 4.33

Exercise: # get_value(readout= pKi, system= Peptidyl-prolyl cis-trans isomerase FKBP1A (Homo sapiens, UniProt P62942)) for COc1cc([C@@H](C(=O)N2CCCC[C@H]2C(=O)N[C@@H](C)C(N)=O)C2CCCCC2)cc(OC)c1OC
Key: 4.51

Exercise: # get_value(readout= pKi, system= Peptidyl-prolyl cis-trans isomerase FKBP1A (Homo sapiens, UniProt P62942)) for COc1cc2c(c(OC)c1)C1C3CCCC(C(=O)N1CC2)N3C(=O)C(=O)c1ccc(F)cc1 (stereo unspecified)
Key: 6.96

Exercise: # get_value(readout= pKi, system= Peptidyl-prolyl cis-trans isomerase FKBP1A (Homo sapiens, UniProt P62942)) for CC(C)(C)C(=O)C(=O)N1CCCC1C(=O)OCCCc1ccccc1 (stereo unspecified)
Key: 7.02

Exercise: # get_value(readout= pKi, system= Peptidyl-prolyl cis-trans isomerase FKBP1A (Homo sapiens, UniProt P62942)) for O=C(OCCCc1ccccc1)[C@@H]1CCCN1C(=O)Nc1ccccc1
Key: 6.09

Exercise: # get_value(readout= pKi, system= Peptidyl-prolyl cis-trans isomerase FKBP1A (Homo sapiens, UniProt P62942)) for COc1cc2c(c(OC)c1)C1C3CCCC(C(=O)N1CC2)N3C(=O)C(=O)c1ccccc1O (stereo unspecified)
Key: 6.62

Exercise: # get_value(readout= pKi, system= Peptidyl-prolyl cis-trans isomerase FKBP1A (Homo sapiens, UniProt P62942)) for COc1cc2c(c(OC)c1)C1C3CCCC(C(=O)N1CC2)N3C(=O)C(=O)c1cc(OC)c(OC)c(OC)c1 (stereo unspecified)
Key: 7.16

---

The entries below pair molecules with pKi values for Peptidyl-prolyl cis-trans isomerase FKBP1A (Homo sapiens, UniProt P62942), as found in several publications.
Remember, pKi is on a log scale: it is -log10 of the molar concentration.

Exercise: # get_value(readout= pKi, system= Peptidyl-prolyl cis-trans isomerase FKBP1A (Homo sapiens, UniProt P62942)) for COc1ccc2c(c1)CCN1C(=O)C3CCCC(C21)N3S(=O)(=O)Nc1ccc(N2CCOCC2)nc1 (stereo unspecified)
Key: 6.23

Exercise: # get_value(readout= pKi, system= Peptidyl-prolyl cis-trans isomerase FKBP1A (Homo sapiens, UniProt P62942)) for COc1ccc2c(c1)CCN1C(=O)C3CCCC(C21)N3S(=O)(=O)Nc1ccc(Cl)nc1 (stereo unspecified)
Key: 6.44

Exercise: # get_value(readout= pKi, system= Peptidyl-prolyl cis-trans isomerase FKBP1A (Homo sapiens, UniProt P62942)) for COc1cc2c(c(OC)c1)C1C3CCCC(C(=O)N1CC2)N3C(=O)N(c1ccccc1OC)c1ccccc1OC (stereo unspecified)
Key: 6.45

Exercise: # get_value(readout= pKi, system= Peptidyl-prolyl cis-trans isomerase FKBP1A (Homo sapiens, UniProt P62942)) for C[C@@H](NC(=O)N1CCC[C@H]1C(=O)OCCCc1ccc(Cl)cc1)c1ccccc1
Key: 5.22

Exercise: # get_value(readout= pKi, system= Peptidyl-prolyl cis-trans isomerase FKBP1A (Homo sapiens, UniProt P62942)) for O=C(NCCc1ccccc1)C1CCCN1S(=O)(=O)c1ccccc1 (stereo unspecified)
Key: 4.43

Exercise: # get_value(readout= pKi, system= Peptidyl-prolyl cis-trans isomerase FKBP1A (Homo sapiens, UniProt P62942)) for COc1cc2c(c(OC)c1)[C@]1(C)C3CCC[C@@H](C(=O)N1CC2)N3C(=O)C(=O)c1cc(OC)c(OC)c(OC)c1
Key: 6.30

Exercise: # get_value(readout= pKi, system= Peptidyl-prolyl cis-trans isomerase FKBP1A (Homo sapiens, UniProt P62942)) for COc1ccc(CCCOC(=O)C2CCCCN2S(=O)(=O)Cc2ccccc2)cc1 (stereo unspecified)
Key: 7.04

Exercise: # get_value(readout= pKi, system= Peptidyl-prolyl cis-trans isomerase FKBP1A (Homo sapiens, UniProt P62942)) for CCC(C)(C)C(=O)C(=O)N1CCCC[C@H]1C(=O)OCCCc1cc(OC)c(OC)c(OC)c1
Key: 7.92

Exercise: # get_value(readout= pKi, system= Peptidyl-prolyl cis-trans isomerase FKBP1A (Homo sapiens, UniProt P62942)) for COc1ccc2c(c1)CCN1C(=O)C3CCCC(C21)N3S(=O)(=O)Nc1ccc(F)c(F)c1 (stereo unspecified)
Key: 6.82

Exercise: # get_value(readout= pKi, system= Peptidyl-prolyl cis-trans isomerase FKBP1A (Homo sapiens, UniProt P62942)) for O=C(NCCCc1ccccc1)C1CCCCN1S(=O)(=O)c1ccccc1 (stereo unspecified)
Key: 6.14

Exercise: # get_value(readout= pKi, system= Peptidyl-prolyl cis-trans isomerase FKBP1A (Homo sapiens, UniProt P62942)) for COc1cc([C@@H](C(=O)N2CCCC[C@H]2C(=O)NC2(C(N)=O)CCCC2)C2CCCCC2)cc(OC)c1OC
Key: 5.42
